Test system: Hepatitis C virus
test.name: Antiviral activity against HCV infected in human Huh-luc/neo-ET cells after 72 hrs by replicon assay
Type: functional, organism-based, Hepacivirus hominis
pEC50: −log10 of the molar value.
Listed next: entries and their corresponding pEC50.

given.smiles | value.relation.sign | pEC50
CCC[C@H](NC(=O)[C@@H]1C[C@@H](OC(=O)N2Cc3ccccc3C2)CN1C(=O)[C@@H](NC(=O)OCCN1CCCC1)C(C)(C)C)B1O[C@@H]2C[C@@H]3C[C@@H](C3(C)C)[C@]2(C)O1 | < | 6.00
CC(C)(C)OC(=O)N[C@H](C(=O)N1C[C@H](OC(=O)N2Cc3ccccc3C2)C[C@H]1C(=O)N[C@@H](CC1CCC1)B(O)O)C(C)(C)C | = | 6.77
CC[C@H](NC(=O)[C@@H]1C[C@@H](OC(=O)N2Cc3ccccc3C2)CN1C(=O)[C@@H](NC(=O)OC(C)(C)C)C(C)(C)C)B(O)O | = | 7.01
CCC[C@H](NC(=O)[C@@H]1C[C@@H](OC(=O)N2Cc3ccccc3C2)CN1C(=O)[C@@H](NC(=O)N[C@H](CN(C)S(C)(=O)=O)C(C)(C)C)C(C)(C)C)B(O)O | = | 7.60
CC[C@H](NC(=O)[C@@H]1C[C@@H](OC(=O)N2Cc3ccccc3C2)CN1C(=O)[C@@H](NC(=O)OC(C)(C)C)C1CCCCC1)B(O)O | = | 7.15
CCC[C@H](NC(=O)[C@@H]1C[C@@H](OC(=O)N2Cc3ccccc3C2)CN1C(=O)[C@@H](NC(=O)OCC(C)C)C(C)(C)C)B1O[C@@H]2C[C@@H]3C[C@@H](C3(C)C)[C@]2(C)O1 | = | 7.27
CCC[C@H](NC(=O)[C@@H]1C[C@@H](OC(=O)N2Cc3ccccc3C2)CN1C(=O)[C@@H](NC(=O)OCC)C(C)(C)C)B1O[C@@H]2C[C@@H]3C[C@@H](C3(C)C)[C@]2(C)O1 | = | 6.64
CCC[C@H](NC(=O)[C@@H]1C[C@@H](OC(=O)N2Cc3ccccc3C2)CN1C(=O)[C@@H](NC(=O)OCCF)C(C)(C)C)B1O[C@@H]2C[C@@H]3C[C@@H](C3(C)C)[C@]2(C)O1 | = | 6.39
CCC[C@H](NC(=O)[C@@H]1C[C@@H](OC(=O)N2Cc3ccccc3C2)CN1C(=O)[C@@H](NC(=O)NCCN(CC)CC)C(C)(C)C)B1O[C@@H]2C[C@@H]3C[C@@H](C3(C)C)[C@]2(C)O1 | < | 6.00
CCC[C@H](NC(=O)[C@@H]1C[C@@H](OC(=O)N2Cc3ccccc3C2)CN1C(=O)[C@@H](NC(=O)OCC(C)(C)C)C(C)(C)C)B1O[C@@H]2C[C@@H]3C[C@@H](C3(C)C)[C@]2(C)O1 | = | 7.39
CCC[C@H](NC(=O)[C@@H]1C[C@@H](OC(=O)N2Cc3ccccc3C2)CN1C(=O)[C@@H](NC(=O)OC(C)(C)C)C(C)(C)C)B(O)O | = | 7.16
CCC[C@H](NC(=O)[C@@H]1C[C@@H](OC(=O)N2Cc3ccccc3C2)CN1C(=O)[C@@H](NS(C)(=O)=O)C(C)(C)C)B1O[C@@H]2C[C@@H]3C[C@@H](C3(C)C)[C@]2(C)O1 | < | 6.00
